ASSAY_NAME: yeast display, Sf9 membrane polyspecificity reagent, FACS + sequencing; frameworks hold sequencing errors
MEASURED_QUANTITY: polyreactivity (PSR sort gate)

INSERT INTO assay_data (ordered_residues, measured_quantity, recorded_value) VALUES
  ('QVQLVESCGGLVQAGGSLRLSCAASGGIFGYYAMGWYRQAPGKEREFVAAITLSGGRSYYADSVKGRFTISRDNAKNTVYLQMNSLKPEDTAVYYCNAYPYYLVRNMDSWGQGTQVTVSS', 'polyreactivity (PSR sort gate)', 'high polyreactivity'),
  ('QVQLVESGGGLVQAGGSLRSSCASSGSIFDGNTMGWYRQAPGKERELVAAISYSGGSTYYADSVKGRFTISRDNAKNTVYLQMNSLKPEDTAVYYCAAEWYGYQEDDYWGQGTQVTVSS', 'polyreactivity (PSR sort gate)', 'low polyreactivity'),
  ('QVQLVESGGGLVQAGGSLRLSCAASGFIFKSYAMGWYRQAPGKERELVAAISGRGGSTYYADSVKGRFTISRDNAKNTVYLQMNSLKPEDTAVYYCNVVPSTYYQYDYWGQGTQVTVSS', 'polyreactivity (PSR sort gate)', 'high polyreactivity'),
  ('QDQLVESRGGLVQAGGSLGLSCAASGSIFSYYAMGWYRQAPGKERELVAAITSGGATTYYADSVKGRFTISRDYAKNTVYLQMNSLKPEDTAVYYCAAGYYVYYRWWELDYWGQGTQVTVSS', 'polyreactivity (PSR sort gate)', 'low polyreactivity'),
  ('QVQLVESGGGLVQAGGSLRLSCAASGFIFWYNAMGWYRQAPGKERELVAAITTAGSTNYADSVKGRFTISRDNAKNTVYLQMNSLKPEDTAVYYCAAVSSYWGQGTQVTVSS', 'polyreactivity (PSR sort gate)', 'low polyreactivity'),
  ('QVQLVESGGGLVQAGGSLRLSCAASGFIFLQYPMGWYRQAPGKERDLVAAITSGGGTNYADSVKGRFTISRDNAKNTVYLQMNSLKPEDTAVYYCAARTWPWVLGATQDDYWGQGTQVTVSS', 'polyreactivity (PSR sort gate)', 'low polyreactivity'),
  ('PVQLVESGGGLVQAGGSLRLSCAASGRIFSSYTMGWNIQAPGKERELVAAISWRGGSTYYADSVKGRFTISRDNAKNTVYLLMNSLKPEDTAVYYCAADSRSHPGDYWGHGTQVTVSS', 'polyreactivity (PSR sort gate)', 'low polyreactivity'),
  ('QVQLVESGGGLVQAGGSLRLSCAASGFIFDTNAMGLYRQAPGKERELVATISTSGGSTSYADSVKGRFTISRDNAKNTVYLQMNSLTPEDTAVYYCAARWYFPDRVKYDYWGQGTQVTVSS', 'polyreactivity (PSR sort gate)', 'low polyreactivity'),
  ('QVQLVETGGGLVQAGGSLRLSCAASGFIFGYNAMGWYRQAPGKERELVATISWSGGSTYYADSVKGRFTISRDNAKNTVYLQMNSLKPEDSAVYYCAAEGWERLGWVSWVTVDYWGQGTQVTVSS', 'polyreactivity (PSR sort gate)', 'low polyreactivity'),
  ('QVQLVESGGGLVQAGGSLRLSCAASGSIFSYYAMGWYRQAPGKERELVAAISQNGGSTYYADSVKGRFTNSRDNAKNSVSFQMNRLKAEETAVYYCYAYSVYVRGEYWGQGTQVTVSS', 'polyreactivity (PSR sort gate)', 'high polyreactivity');

// next entry
INPUT: Bench note: what polyreactivity (PSR sort gate) did QVQLVESGGGLVQAGGSLRLSCAASGFTFYLYSMGWYRQAPGKERELVATITSDGGTNYADSVKGRFSISRDNAKNTVYLQMNSLTPEDTAVYYCNAASRRGSRKQAKYDYWGQGTQVTVSA show?
OUTPUT: low polyreactivity
